Biological target: T1, human somatostatin receptor subtype 1 (human, UniProt P30872 1-391)
T1 construct: whole, on cells; Membrane preparations of transfected CHO-K1 cells; also called SSTR1; SSTR-1
T1 sequence (P30872 whole entry): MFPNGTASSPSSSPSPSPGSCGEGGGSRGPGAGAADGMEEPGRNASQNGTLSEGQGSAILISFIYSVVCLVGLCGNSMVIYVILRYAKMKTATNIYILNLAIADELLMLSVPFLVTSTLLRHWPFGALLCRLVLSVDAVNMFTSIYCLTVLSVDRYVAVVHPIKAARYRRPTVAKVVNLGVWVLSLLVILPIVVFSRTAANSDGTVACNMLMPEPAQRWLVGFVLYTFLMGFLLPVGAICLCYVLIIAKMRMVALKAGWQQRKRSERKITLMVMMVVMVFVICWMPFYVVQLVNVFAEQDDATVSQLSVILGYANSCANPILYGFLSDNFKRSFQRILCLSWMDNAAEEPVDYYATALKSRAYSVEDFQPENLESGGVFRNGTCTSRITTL
Assay: radioligand displacement, CHO-K1 membranes expressing human SSTR1; competitor [125I-Tyr11]SS-14
Where no end group is shown, it is not given here. [ ]: non-standard residue; d: D form.
metric: IC50 (nM)

binder | metric | value_reported
XCYXKVCT (not fully specified; D-Nal at position 1; D-Trp at position 4; cyclo (disulfide) Cys2-Cys7; C-terminal amide, also called SSTR2 preferential agonist) [Compound 1: D-Nal-cyclo[Cys-Tyr-D-Trp-Lys-Val-Cys]-Thr-NH2] | IC50 | 2130
[dF]FW[dW]KTFT-NH2 (also called SSTR5 preferential agonist; SSTR5 selective agonist) [Compound 5: D-Phe-Phe-Trp-D-Trp-Lys-Thr-Phe-Thr-NH2] | IC50 | 1150
